The measurements presented in this section are drawn from PubChem BioAssay AID1919017.

- Tested on: SW1271 complex spheroids with HUVEC/MSC, growth, % test/control
- test.protocol: Anticancer human tumor SW1271 cell line growth inhibition [AhR];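 note: spheroids exposed to agents for 7 days before readout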
- conditions.used: second compound 1 µM; first compound 0.0316 µM; stronger effect = lower value
Exercise: for every item that follows, state its recorded viability, T/C.
Numbers only; they are read as %.

Entry COc1cc(Nc2ncc3c(n2)-c2ccc(Cl)cc2C(c2c(F)cccc2OC)=NC3)ccc1C(=O)O + Cc1ccccc1N=Nc1ccc(NC(=O)c2ccnn2C)c(C)c1 , system SW1271 complex spheroids with HUVEC/MSC, growth, % test/control: what viability, T/C was measured?
81.8

Next record, please: NS(=O)(=O)OCC1CC(n2ccc3c(NC4CCc5ccccc54)ncnc32)CC1O (stereo not given) + CC(CO)NC(=O)c1cc(-c2ccc(Cl)cc2)nn(-c2cnn(C)c2)c1=O
125

How about CC1(C)CCC(CN2CCN(c3ccc(C(=O)NS(=O)(=O)c4ccc(NCC5CCOCC5)c([N+](=O)[O-])c4)c(Oc4cnc5[nH]ccc5c4)c3)CC2)=C(c2ccc(Cl)cc2)C1 + CC(CO)NC(=O)c1cc(-c2ccc(Cl)cc2)nn(-c2cnn(C)c2)c1=O ?
91

Repeat for the following compound: COc1ccc([C@@H](O)c2cc(-c3ncnc4cc(N5CCOCC5)ccc34)c(F)cc2Cl)nn1 + CC(CO)NC(=O)c1cc(-c2ccc(Cl)cc2)nn(-c2cnn(C)c2)c1=O
103

What do you have for Nc1ncn(C2CC(O)C(CO)O2)c(=O)n1 (stereo not given) + Cc1ccccc1N=Nc1ccc(NC(=O)c2ccnn2C)c(C)c1 ?
72.7

Same for COc1cc(Nc2ncc3c(n2)-c2ccc(Cl)cc2C(c2c(F)cccc2OC)=NC3)ccc1C(=O)O + Cc1cncc(-c2nc(NCCc3c[nH]c4ccccc34)c3ncn(C(C)C)c3n2)c1
81.5

What do you have for CC1(C)CCC(CN2CCN(c3ccc(C(=O)NS(=O)(=O)c4ccc(NCC5CCOCC5)c([N+](=O)[O-])c4)c(Oc4cnc5[nH]ccc5c4)c3)CC2)=C(c2ccc(Cl)cc2)C1 + Cc1cncc(-c2nc(NCCc3c[nH]c4ccccc34)c3ncn(C(C)C)c3n2)c1 ?
95.5

Follow-up entry: O=C(C=Cc1cccc(S(=O)(=O)Nc2ccccc2)c1)NO + CC(CO)NC(=O)c1cc(-c2ccc(Cl)cc2)nn(-c2cnn(C)c2)c1=O
85.9

Repeat with COc1cc(C2c3cc4c(cc3C(OC3OC5COC(C)OC5C(O)C3O)C3COC(=O)C23)OCO4)cc(OC)c1O (stereo not given) + CC(CO)NC(=O)c1cc(-c2ccc(Cl)cc2)nn(-c2cnn(C)c2)c1=O
64.7

Moving on to O=C(c1cc(Cc2n[nH]c(=O)c3ccccc23)ccc1F)N1CCN(C(=O)C2CC2)CC1 + Cc1ccccc1N=Nc1ccc(NC(=O)c2ccnn2C)c(C)c1
79.5

---

- Tested on: SW1271 complex spheroids with HUVEC/MSC, growth, % test/control
- test.protocol: Anticancer human tumor SW1271 cell line growth inhibition [AhR];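 note: spheroids exposed to agents for 7 days before readout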
- conditions.used: second compound 0.316 µM; first compound 10 µM; stronger effect = lower value
- Description: Multicellular complex tumor spheroid response to aryl hydrocarbon receptor antagonists in combination with a variety of drugs and investigational agents in selected tumor cell lines […] Compounds. […] If the clinical Cmax for an agent had not been determined, the highest concentration tested was 10 microM (Table 1). […]
measure.name: viability, T/C

What measured viability, T/C is associated with CC1(C)CCC(CN2CCN(c3ccc(C(=O)NS(=O)(=O)c4ccc(NCC5CCOCC5)c([N+](=O)[O-])c4)c(Oc4cnc5[nH]ccc5c4)c3)CC2)=C(c2ccc(Cl)cc2)C1 + Cc1cncc(-c2nc(NCCc3c[nH]c4ccccc34)c3ncn(C(C)C)c3n2)c1 on SW1271 complex spheroids with HUVEC/MSC, growth, % test/control?
125%

Note, next up: CC1COCCN1c1cc(C2(S(C)(=N)=O)CC2)nc(-c2ccnc3[nH]ccc23)n1 (centres undefined) + Cc1ccccc1N=Nc1ccc(NC(=O)c2ccnn2C)c(C)c1
58.8%

Entry Nc1ccccc1NC(=O)c1ccc(CNC(=O)OCc2cccnc2)cc1 + CC(CO)NC(=O)c1cc(-c2ccc(Cl)cc2)nn(-c2cnn(C)c2)c1=O please
9.29%

Param item: CC1(C)CCC(CN2CCN(c3ccc(C(=O)NS(=O)(=O)c4ccc(NCC5CCOCC5)c([N+](=O)[O-])c4)c(Oc4cnc5[nH]ccc5c4)c3)CC2)=C(c2ccc(Cl)cc2)C1 + Cc1ccccc1N=Nc1ccc(NC(=O)c2ccnn2C)c(C)c1
90%
